# System: Escherichia coli TOP10
# Assay notes: shrunken log2 fold change of peptide-encoding DNA abundance (4.5 h post-induction vs induction); higher = less antimicrobial activity (less host growth inhibition)
# Condition context: time post-induction: 4.5 h; library: site-saturation at positions 5, 18, 19, 20
Entries and their shrunken log2 fold change
Answer field: number only, no words.

RRIRFRPPRLPRPRPRPATQPRP    -0.00992
RRIRTRPPRLPRPRPRPMRVPRP    -0.036
RRIRLRPPRLPRPRPRPCYSPRP    -0.142
RRIRIRPPRLPRPRPRPDRYPRP    -0.032

# context switch: different sequence, same shrunken log2 fold change
What shrunken log2 fold change appears in the records for this sequence with Escherichia coli TOP10? RRIRWRPPRLPRPRPRPAYTPRP 0.0906

---

# Tested on: Escherichia coli TOP10
# Assay notes: shrunken log2 fold change of peptide-encoding DNA abundance (4.5 h post-induction vs induction); higher = less antimicrobial activity (less host growth inhibition)
# Condition context: time post-induction: 4.5 h; library: site-saturation at positions 5, 18, 19, 20
Metric name: shrunken log2 fold change
Respond numerically, and do not add a unit to the figure.

Some sequences with known shrunken log2 fold change results, for comparison:
RRIRARPPRLPRPRPRPPTEPRP    1.2
RRIRCRPPRLPRPRPRPNMVPRP    0.0392
RRIRSRPPRLPRPRPRPAHWPRP    0.416

For RRIRFRPPRLPRPRPRPHHHPRP , what is its reported shrunken log2 fold change? -0.678

Look up shrunken log2 fold change: RRIRGRPPRLPRPRPRPSRRPRP 0.647

Please look up its shrunken log2 fold change: RRIRWRPPRLPRPRPRPTYPPRP -0.553

Request the reported shrunken log2 fold change associated with RRIRARPPRLPRPRPRPFMSPRP -0.0065

For the sequence shown here, RRIRIRPPRLPRPRPRPTRDPRP , give the reported shrunken log2 fold change. -0.0265

Entry under review: RRIRLRPPRLPRPRPRPKGSPRP . Reported shrunken log2 fold change? -0.0276

Can you look up the measured shrunken log2 fold change of RRIRHRPPRLPRPRPRPNVKPRP for me? -0.112

May I ask what shrunken log2 fold change has been recorded for RRIRKRPPRLPRPRPRPMTKPRP ? 0.397

Can you share its shrunken log2 fold change? I mean this sequence: RRIRKRPPRLPRPRPRPVGMPRP 0.554

# input sequence: RRIRGRPPRLPRPRPRPNYHPRP ; wanted: its shrunken log2 fold change -0.179

Return reported shrunken log2 fold change; argument: RRIRKRPPRLPRPRPRPIRYPRP -0.118

Look up shrunken log2 fold change for this sequence: RRIRKRPPRLPRPRPRPMDFPRP -0.0018

Sample RRIRQRPPRLPRPRPRPNMEPRP — what was its shrunken log2 fold change? -0.404

Would you mind telling me what shrunken log2 fold change value was observed for RRIRPRPPRLPRPRPRPGMNPRP ? -0.0398

---

The entries below come with measured shrunken log2 fold change values attached.
# Tested on: Escherichia coli TOP10
# Assay notes: shrunken log2 fold change of peptide-encoding DNA abundance (4.5 h post-induction vs induction); higher = less antimicrobial activity (less host growth inhibition)
# Condition context: time post-induction: 4.5 h; library: site-saturation at positions 5, 18, 19, 20
Reply with just the number.

RRIRHRPPRLPRPRPRPEHCPRP    0.0155
RRIRIRPPRLPRPRPRPSIHPRP    -1.28

Now for a further sequence.
Which value of shrunken log2 fold change has been reported for RRIRGRPPRLPRPRPRPLRFPRP in the records? 0.917

---

# Test system: Escherichia coli TOP10
# Assay notes: shrunken log2 fold change of peptide-encoding DNA abundance (4.5 h post-induction vs induction); higher = less antimicrobial activity (less host growth inhibition)
# Condition context: time post-induction: 4.5 h; library: site-saturation at positions 5, 18, 19, 20
Metric name: shrunken log2 fold change
Answer with a bare number; do not write a unit.

For the sequence shown here, RRIRARPPRLPRPRPRPTEYPRP , give the reported shrunken log2 fold change. -0.103

Item under review: RRIRHRPPRLPRPRPRPCEAPRP . Reported shrunken log2 fold change? -0.136

shrunken log2 fold change for RRIRMRPPRLPRPRPRPKKMPRP ? 0.249

---

# Tested on: Escherichia coli TOP10
# Assay notes: shrunken log2 fold change of peptide-encoding DNA abundance (4.5 h post-induction vs induction); higher = less antimicrobial activity (less host growth inhibition)
# Condition context: time post-induction: 4.5 h; library: site-saturation at positions 5, 18, 19, 20
Note to self: class labels come from recorded shrunken log2 fold change, ranges listed here: range A: < -0.2; range B: ≥ -0.2 and < 0.03; range C: ≥ 0.03

Dear colleague, I would appreciate it if you could identify the bin for RRIRRRPPRLPRPRPRPAKYPRP and reply at your convenience. range C

Which class is correct for the following sequence? RRIRARPPRLPRPRPRPVIGPRP range C

Where would RRIRIRPPRLPRPRPRPFGTPRP land among the classes by reported shrunken log2 fold change? range B

Please indicate the class for RRIRSRPPRLPRPRPRPIVRPRP based on its shrunken log2 fold change. range B

Class label required: RRIRVRPPRLPRPRPRPDAPPRP range C

---

# Test system: Escherichia coli TOP10
# Assay notes: shrunken log2 fold change of peptide-encoding DNA abundance (4.5 h post-induction vs induction); higher = less antimicrobial activity (less host growth inhibition)
# Condition context: time post-induction: 4.5 h; library: site-saturation at positions 5, 18, 19, 20
Metric name: shrunken log2 fold change
Reply with the value as a number alone.

Example entries and their recorded answers appear below.
RRIRPRPPRLPRPRPRPGLAPRP    0.841
RRIRCRPPRLPRPRPRPCITPRP    -0.0767
RRIRPRPPRLPRPRPRPVARPRP    0.245
RRIRNRPPRLPRPRPRPICMPRP    -0.195
RRIRIRPPRLPRPRPRPVIYPRP    -0.695
RRIRGRPPRLPRPRPRPPPMPRP    1.19

Then this sequence:
Param item = RRIRYRPPRLPRPRPRPKKWPRP ; retrieve measured shrunken log2 fold change. -0.113

---

# Tested on: Escherichia coli TOP10
# Assay notes: shrunken log2 fold change of peptide-encoding DNA abundance (4.5 h post-induction vs induction); higher = less antimicrobial activity (less host growth inhibition)
# Condition context: time post-induction: 4.5 h; library: site-saturation at positions 5, 18, 19, 20
Would you mind labelling by shrunken log2 fold change? At or over 0.1 is yes, under is no.

RRIRERPPRLPRPRPRPLRIPRP    no
RRIRFRPPRLPRPRPRPNGHPRP    no
RRIRERPPRLPRPRPRPVNVPRP    no
RRIRSRPPRLPRPRPRPLPRPRP    yes
RRIRKRPPRLPRPRPRPSQYPRP    no

Determine whether this sequence has shrunken log2 fold change no lower than 0.1: RRIRVRPPRLPRPRPRPTIGPRP yes

Is the recorded value of shrunken log2 fold change equal to or greater than 0.1 for this sequence? RRIRKRPPRLPRPRPRPSVMPRP yes

---

# Tested on: Escherichia coli TOP10
# Assay notes: shrunken log2 fold change of peptide-encoding DNA abundance (4.5 h post-induction vs induction); higher = less antimicrobial activity (less host growth inhibition)
# Condition context: time post-induction: 4.5 h; library: site-saturation at positions 5, 18, 19, 20
Metric name: shrunken log2 fold change

RRIRARPPRLPRPRPRPTTRPRP    0.61
RRIRCRPPRLPRPRPRPEDWPRP    0.595
RRIRLRPPRLPRPRPRPHIIPRP    0.0077
RRIRRRPPRLPRPRPRPNMTPRP    -0.136
RRIRLRPPRLPRPRPRPKDDPRP    -0.0117
RRIRDRPPRLPRPRPRPVVGPRP    0.642

Could you tell me which shrunken log2 fold change is on file for RRIRARPPRLPRPRPRPFTNPRP ? -0.273

Item RRIRPRPPRLPRPRPRPANMPRP has what recorded shrunken log2 fold change? -0.219

I'd like to know its shrunken log2 fold change. The sequence in question is RRIRQRPPRLPRPRPRPVWFPRP 0.111

---

# Test system: Escherichia coli TOP10;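 also: peptides expressed intracellularly from a pBAD plasmid library in pooled LB shake-flask culture, induced with 0.3% L-arabinose, DNA abundance read by NGS, three biological replicates, DESeq2 with apeglm shrinkage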
# Assay notes: shrunken log2 fold change of peptide-encoding DNA abundance (4.5 h post-induction vs induction); higher = less antimicrobial activity (less host growth inhibition)
# Condition context: time post-induction: 4.5 h; library: site-saturation at positions 5, 18, 19, 20
Label Fulfilled for high-side shrunken log2 fold change (at or above -0.1) and Not fulfilled for low-side shrunken log2 fold change (below it).

Previously resolved entries follow.
RRIRQRPPRLPRPRPRPHYVPRP    Not fulfilled
RRIRRRPPRLPRPRPRPSGRPRP    Fulfilled
RRIRYRPPRLPRPRPRPTCPPRP    Not fulfilled
RRIRVRPPRLPRPRPRPDIDPRP    Not fulfilled
RRIRIRPPRLPRPRPRPMNEPRP    Fulfilled
RRIRVRPPRLPRPRPRPPLYPRP    Fulfilled

Is reported shrunken log2 fold change greater than or equal to -0.1 here: RRIRRRPPRLPRPRPRPCKYPRP Not fulfilled

API: above_or_equal(metric=shrunken log2 fold change, cutoff=-0.1) for item RRIRWRPPRLPRPRPRPSTDPRP Fulfilled

Hello, I need to know if RRIRHRPPRLPRPRPRPSRNPRP has measured shrunken log2 fold change not below -0.1. Thanks! Not fulfilled
